Recorded measurements of manual score, one per entry
Experiment: thallium influx changes without GIRK channels – cell-based, HEK-293 rmGlu8, no GIRK, thallium flux, counter-screen for GIRK activator project, confirmation (AID 623868);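 further: extra codes mark interference with 3 for fluorescent and 4 for baseline rise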
Settings: thallium flux fluorescence, at 10 µM, actives lie on both sides, codes: 1 enhancer, -1 blocker, 0 none, thallium stimulus containing EC20 glutamate
The campaign covered roughly 2,100 compounds. About 760 (36%) were called active. The list is a sample of the results.
Test readout: manual score

structure_smiles=COc1ccc(-n2c(=S)[nH]c3ccccc32)cc1 test_readout="manual score" test_value="1 (active)"
structure_smiles=Cc1ccc(-n2[nH]c(C)c(C=Nc3cc(C)ccn3)c2=O)cc1 test_readout="manual score" test_value="1 (active)"
structure_smiles=CC12CC3(C)CC(C)(C1)CC(C(=O)NC(=S)N1CCOCC1)(C2)C3 test_readout="manual score" test_value="1 (active)"
structure_smiles=COC(=O)c1c(NC(=O)CSc2nnc(-c3cccnc3)n2Cc2ccco2)sc(C)c1C test_readout="manual score" test_value="-1 (active)"
structure_smiles=CC12CC3CC(C)(C1)CC(C(=O)NC(=S)N1CCOCC1)(C3)C2 test_readout="manual score" test_value="1 (active)"
structure_smiles=CC1=NN(c2ccccc2)C(=O)/C1=C\c1c(C)[nH]n(-c2ccccc2)c1=O test_readout="manual score" test_value="0 (inactive)"
structure_smiles=CCc1cccc(NC(=O)CSC2=NS(=O)(=O)c3ccccc32)c1 test_readout="manual score" test_value="0 (inactive)"
structure_smiles=Cc1ccc(-n2[nH]c(C)c(/C=N/c3ccccn3)c2=O)cc1 test_readout="manual score" test_value="0.5 (inactive)"
structure_smiles=CCOC(=O)c1c(NC(=O)CSc2nnc(-c3ccncc3)n2Cc2ccco2)sc(C(C)=O)c1C test_readout="manual score" test_value="-1 (active)"
structure_smiles=O=c1c2ccccc2c(C=NCc2ccccn2)c(O)n1-c1ccccc1 test_readout="manual score" test_value="0 (inactive)"

====

Recorded measurements of manual score, one per entry
Assay: thallium influx changes without GIRK channels – cell-based, HEK-293 rmGlu8, no GIRK, thallium flux, counter-screen for GIRK activator project, confirmation (AID 623868);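 further: extra codes mark interference with 3 for fluorescent and 4 for baseline rise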
Details: thallium flux fluorescence, at 10 µM, actives lie on both sides, codes: 1 enhancer, -1 blocker, 0 none, thallium stimulus containing EC20 glutamate
Hit rate of the full screen: of about 2,100 compounds, about 760 (36%) were called active. Only a sample is shown.
Test readout: manual score

molecule=CCOC(=O)CSc1nc(C)c2cc(OC)ccc2n1 test_value=0
molecule=CC(C)n1cc(NC(=O)c2cc(-c3ccccc3)on2)cn1 test_value=1
molecule="CCOC(=O)CN1NC2(CCC(C(C)(C)C)CC2)NC1=S (stereo unspecified)" test_value=0
molecule=CCCn1cc(NC(=O)c2cc(-c3ccccc3)on2)cn1 test_value=1
molecule=Cc1ccc(-n2ncc3c(SCc4ccccc4)ncnc32)cc1 test_value=1
molecule=CCC(=O)Oc1ccc(C/C(=N\O)c2ccc(O)cc2O)o1 test_value=-1

====

Assay: thallium influx changes without GIRK channels – cell-based, HEK-293 rmGlu8, no GIRK, thallium flux, counter-screen for GIRK activator project, confirmation (AID 623868);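 further: extra codes mark interference with 3 for fluorescent and 4 for baseline rise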
Settings: thallium flux fluorescence, at 10 µM, actives lie on both sides, codes: 1 enhancer, -1 blocker, 0 none, thallium stimulus containing EC20 glutamate
Hit rate of the full screen: of about 2,100 compounds, about 760 (36%) were called active.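 The calls were made as follows: active = thallium-flux fluorescence traces judged by eye to show enhanced or reduced glutamate response, manual score 1 or -1, so both directions (some results past the limit were not filed as active); inactive = the rest, including fluorescent or raised-baseline compounds.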 Not all results are given here.
Outcomes: y for active, n for inactive

molecule="O=C(/C=C/c1ccccc1)NC(NC(=S)Nc1cc(Cl)ccc1Cl)C(Cl)(Cl)Cl (configuration not stated)" category=n
molecule=O=C(N/N=C/c1c(Cl)cccc1Cl)c1cccc(F)c1 category=n
molecule=COc1ccc(OC)c(C(=O)c2coc3ccc(O)c(CN4CCOCC4)c23)c1 category=n
molecule="O=C(/C=C/c1ccccc1)NC(NC(=S)Nc1cccc(O)c1)C(Cl)(Cl)Cl (configuration not stated)" category=n
molecule=COC(=O)c1ccc(-n2c(C)cc(C(=O)CSc3ccc(NC(C)=O)cc3)c2C)cc1 category=n
molecule="CC1CCCC(NC(=S)NC(=O)c2cncc(Br)c2)C1C (configuration not stated)" category=y
molecule=CCOC(=O)C(CCCCOc1cccc(CC)c1)C(=O)OCC category=n
molecule="CC1CCCC(NC(=S)Nc2ccc(SC(F)F)cc2)C1C (configuration not stated)" category=n
molecule=O=C(Nc1ccc(SC(F)F)cc1)C12CCC(CC1)C2 category=n
molecule="CCC(NC(=O)c1ccccc1O)c1ccccc1 (configuration not stated)" category=n
molecule="CC1CCCC(NC(=O)Nc2cccs2)C1C (configuration not stated)" category=n
molecule=CCOc1ccc(NC(=O)Nc2cccs2)cc1 category=n
molecule="CC1(C)CC(=O)C2=C(C1)N(c1ccccc1)C(N)=C(C#N)C2c1ccsc1 (configuration not stated)" category=y
molecule=COc1cc(/C=C2\SC(=S)NC2=O)ccc1OS(=O)(=O)c1ccccc1 category=y
molecule=CCOc1ccccc1OCCCCCc1c(C)n[nH]c1C category=n
molecule="CCOC(=O)CC1=C(C(=O)OCC)C(c2cccs2)C(C#N)=C(N)O1 (configuration not stated)" category=n
molecule=Cc1oc(-c2cccc(Cl)c2)nc1CN1CCC(C(=O)NCc2ccco2)CC1 category=n
molecule=CCCc1nnc2n1N=C(c1ccc(OC)c(OC)c1)CS2 category=n
molecule="COC(=O)c1ccccc1NC(=S)NC(NC(=O)c1ccccc1[N+](=O)[O-])C(Cl)(Cl)Cl (configuration not stated)" category=y
molecule="O=C(C1CCC(Cn2c(=S)[nH]c3ccccc3c2=O)CC1)N1CCN(c2ccccc2)CC1 (configuration not stated)" category=n
molecule=COc1cccc2sc(Nc3nnc(-c4cccs4)o3)nc12 category=y
molecule=CN(C(=S)NC(=O)c1ccccc1Br)C1CCCCC1 category=y
molecule=c1cc2c(cc1C1=Nn3c(nnc3C3CCCCC3)SC1)OCO2 category=y
molecule=CCc1cc2cccc(C)c2nc1SCC(=O)c1ccc(NC(C)=O)cc1 category=y
molecule="COC(=O)c1ccccc1NC(=S)NC(NC(=O)c1ccco1)C(Cl)(Cl)Cl (configuration not stated)" category=y
molecule=O=C(NC(=S)NCc1ccc(-c2nc3ccccc3s2)cc1)c1ccco1 category=y
molecule=Brc1ccccc1C1=Nn2c(nnc2-c2ccccc2)SC1 category=n
molecule=COc1ccccc1C1=Nn2c(nnc2C2CCCCC2)SC1 category=n
molecule=CN(C)CCNc1nc2c(c(=O)[nH]c(=O)n2C)n1CCCc1ccccc1 category=n
molecule="CC1CC(C)CN(C(=S)Nc2ccc(SC(F)F)cc2)C1 (configuration not stated)" category=n
molecule="CC1CCCC(NC(=S)NC(=O)c2ccccc2Br)C1C (configuration not stated)" category=y
molecule="CCOC(=O)C1=C(C)NC2=C(C(=O)CC(c3ccc(OC)c(OC)c3)C2)C1c1ccc(C)o1 (configuration not stated)" category=n
